assay: gradient 5% acetonitrile 3 min, to 50% in 2 min, to 85% in 15 min, held 3 min, 100 µL/min; settings: column: Zorbax Extend-C18 2.1 x 50 mm; eluents: water / acetonitrile, 0.1% formic acid
MEASURED ATTRIBUTE: RP-LC retention time (s)

>  <COMPOUND>
CCn1c(=O)sc2cc(S(=O)(=O)N3CCC(C(=O)NCc4cccnc4)CC3)ccc21

>  <MEASURED ATTRIBUTE>
RP-LC retention time

>  <NUMERIC READOUT>
610

$$$$
>  <COMPOUND>
CC1CCc2onc(C(=O)N(CCC#N)c3ccccc3)c2C1 (stereo not given)

>  <MEASURED ATTRIBUTE>
RP-LC retention time

>  <NUMERIC READOUT>
945

$$$$
>  <COMPOUND>
COc1cc(C(=O)N2CCC3(CC2)Nc2ccccc2-n2cccc23)cc(OC)c1OC

>  <MEASURED ATTRIBUTE>
RP-LC retention time

>  <NUMERIC READOUT>
902

$$$$

(A) Cc1nnc(NC(=O)Cn2cccn2)s1
(B) COC(=O)C(NC(=O)Nc1ccc(-c2nc(-c3ccccc3)co2)cc1)c1ccccc1 (stereo not given)
Returns: the label, A or B , whose recorded RP-LC retention time is the lower number. // output: label of the selected item
A

(I) CC(=O)Nc1cc2c(cc1SC(C)C)n(C)c(=O)n2C
(II) O=C(CN1CCCCC1c1nc(-c2cccc(F)c2)no1)Nc1ccc(F)cc1 (stereo not given)
Returns: the label, I or II , whose recorded RP-LC retention time is the lower number. // output: label of the selected item
I
(I: 705 s, II: 1130 s)

(A) O=C(CN1C(=O)NC2(CCCCC2)C1=O)Nc1cccc(F)c1
(B) COc1ccc(-c2noc(C3CC(=O)N(c4ccccc4)C3)n2)cc1OC (stereo not given)
Select one: A or B . Criterion: greater recorded RP-LC retention time. // output: label of the selected item
B
(B: 964 s, A: 633 s)

FYI, the data here is from the METLIN SMRT retention time set (Domingo-Almenara et al. 2019).
